Target: PI3Kα (Homo sapiens, UniProt P42336)
Experiment: PI3Kα inhibitory activity (Ki value)
Assay type: biochemical
Conditions: read-out: PI3Kα Ki value
Measure Name: Ki (µM)

1 = CC(C)CCOc1ccccc1NC(=O)Nc1cc2n(n1)CCN2c1ccc2c(c1)CCN(C)C2=O [Compound I-112]
2 = COc1cncc(-c2ccc3nc(NC(=O)Nc4ccccc4OCCC(C)C)cn3n2)c1 [Compound I-114]
Which is greater in Ki, the first item 1 or the second item 2 ? Please reply using the label of the selected record.
1

* * *

// reported inhibition at 1 µM per item
Tested on: AKT phosphorylation
Experiment: AKT phosphorylation inhibitory activity in MCP-1 stimulated THP-1 cells (sandwich ELISA)
Type: cell-based, Human
Settings: Homo sapiens, compound at 1 μmol/L, MCP-1 stimulation, read-out: AKT phosphorylation inhibition ratio
Write the number in % without appending the unit.

Some compounds with recorded inhibition at 1 µM:
COc1nc(Cl)cc(N2CCc3nc(NC(=O)Nc4ccccc4C(=O)NC(C)C(F)(F)F)sc3C2)n1 (stereo not shown)
83
COc1cc(N2CCc3nc(NC(=O)Nc4ccccc4C(=O)NN4CCN(C)CC4)sc3C2)nc(OC)n1
82

// below: inhibition at 1 µM requested for another compound
Consider the compound shown here: COc1cc(N2CCc3nc(NC(=O)Nc4ccccc4C(=O)NC(C)C(F)(F)F)sc3C2)nc(OC)n1 (stereo not shown) What is its recorded inhibition at 1 µM?
84

* * *

// reported pKi per item
Target: PI3Kβ (Homo sapiens)
Sequence (P42338 whole entry, species assumed): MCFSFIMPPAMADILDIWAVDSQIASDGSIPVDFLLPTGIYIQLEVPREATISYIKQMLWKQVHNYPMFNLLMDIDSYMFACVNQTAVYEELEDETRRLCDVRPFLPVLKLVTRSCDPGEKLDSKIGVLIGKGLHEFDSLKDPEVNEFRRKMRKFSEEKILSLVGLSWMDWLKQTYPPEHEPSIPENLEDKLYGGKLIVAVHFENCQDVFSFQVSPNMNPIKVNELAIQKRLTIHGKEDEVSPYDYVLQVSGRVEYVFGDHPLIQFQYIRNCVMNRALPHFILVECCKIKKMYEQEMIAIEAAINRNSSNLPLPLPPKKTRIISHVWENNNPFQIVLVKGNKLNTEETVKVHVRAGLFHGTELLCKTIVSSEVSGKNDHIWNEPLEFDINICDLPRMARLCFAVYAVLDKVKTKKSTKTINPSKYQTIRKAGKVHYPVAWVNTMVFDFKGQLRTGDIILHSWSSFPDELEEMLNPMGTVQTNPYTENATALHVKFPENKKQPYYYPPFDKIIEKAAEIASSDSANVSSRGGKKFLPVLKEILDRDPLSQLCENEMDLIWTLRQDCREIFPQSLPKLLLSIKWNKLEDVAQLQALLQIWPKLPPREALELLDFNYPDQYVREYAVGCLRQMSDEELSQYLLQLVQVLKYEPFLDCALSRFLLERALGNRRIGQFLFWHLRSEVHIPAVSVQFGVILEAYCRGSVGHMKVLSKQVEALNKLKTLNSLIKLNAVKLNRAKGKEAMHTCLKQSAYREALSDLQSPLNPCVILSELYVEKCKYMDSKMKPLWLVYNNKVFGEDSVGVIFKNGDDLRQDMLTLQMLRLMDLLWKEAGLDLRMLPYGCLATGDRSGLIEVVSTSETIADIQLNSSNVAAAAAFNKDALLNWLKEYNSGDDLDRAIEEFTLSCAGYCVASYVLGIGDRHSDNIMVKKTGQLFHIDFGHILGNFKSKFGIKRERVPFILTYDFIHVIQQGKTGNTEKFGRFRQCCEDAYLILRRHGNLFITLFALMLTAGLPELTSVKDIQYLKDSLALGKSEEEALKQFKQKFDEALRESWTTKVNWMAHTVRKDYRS
Sequence (P27986 whole entry partner, species assumed): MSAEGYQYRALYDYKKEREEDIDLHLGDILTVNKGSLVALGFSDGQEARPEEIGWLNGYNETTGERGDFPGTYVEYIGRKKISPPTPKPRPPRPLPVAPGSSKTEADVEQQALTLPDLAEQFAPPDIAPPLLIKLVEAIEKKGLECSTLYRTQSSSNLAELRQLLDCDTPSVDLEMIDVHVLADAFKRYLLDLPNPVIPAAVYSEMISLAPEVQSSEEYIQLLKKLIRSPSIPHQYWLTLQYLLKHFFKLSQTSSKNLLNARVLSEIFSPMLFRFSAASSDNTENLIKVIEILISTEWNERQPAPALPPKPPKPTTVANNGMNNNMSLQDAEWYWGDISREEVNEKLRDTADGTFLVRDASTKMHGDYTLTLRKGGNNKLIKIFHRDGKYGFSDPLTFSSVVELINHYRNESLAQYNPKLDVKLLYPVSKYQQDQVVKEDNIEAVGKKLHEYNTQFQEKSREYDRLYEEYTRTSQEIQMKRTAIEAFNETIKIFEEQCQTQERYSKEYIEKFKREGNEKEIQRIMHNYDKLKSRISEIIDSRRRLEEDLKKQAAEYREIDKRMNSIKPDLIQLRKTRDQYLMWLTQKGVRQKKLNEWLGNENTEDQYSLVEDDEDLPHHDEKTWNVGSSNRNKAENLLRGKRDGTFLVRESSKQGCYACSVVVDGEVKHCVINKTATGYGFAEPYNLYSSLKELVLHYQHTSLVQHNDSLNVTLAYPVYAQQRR
Assay: PI3Kβ inhibitory activity (Ki value)
Assay type: biochemical
Conditions: class symbols; read-out: PI3K β Ki
Method: According to Example 2 above, after 80 μg/mL PI-3 kinase γ of the enzyme solution (80 μg/mL PI-3 kinase γ, 10 mmol/L MgCl2, 5 mmol/L DTT) was changed to 60 μg/mL PI-3 kinase β, a method similar to the method for measuring PI3Kγ inhibitory activity was used to calculate an inhibition ratio, which was defined as the PI3Kβ inhibitory activity. According to Example 4 above, a Km value for PI3Kβ was determined to calculate a Ki value.
pKi: −log10 of the molar value.

Some compounds with recorded pKi:
COc1cc(N2CCc3nc(NC(=O)Nc4ccccc4C(=O)NC(C)C)sc3C2)nc(OC)n1
≥ 5.52
COc1cncc(-c2ccc3nc(NC(=O)Nc4ccccc4OCCC(C)C)sc3n2)c1
≥ 6.52
COc1cc(N2CCc3nc(NC(=O)NC4=C(C(=O)NC(C)(C)C)CCC4)sc3C2)nc(OC)n1
≥ 5.52

// below: pKi requested for another compound
Consider the compound shown here: "COc1cncc(-c2ccc3nc(NC(=O)Nc4ccccc4OCCC(C)C)cn3n2)c1" What is its recorded pKi?
≥ 5.52

* * *

// reported inhibition at 10 min, 1 µM per item
Molecular target: hERG channel (IKr) (Homo sapiens, UniProt Q12809)
Construct: expressed in transfected cells; host or cells: HEK293
Sequence (Q12809 whole entry): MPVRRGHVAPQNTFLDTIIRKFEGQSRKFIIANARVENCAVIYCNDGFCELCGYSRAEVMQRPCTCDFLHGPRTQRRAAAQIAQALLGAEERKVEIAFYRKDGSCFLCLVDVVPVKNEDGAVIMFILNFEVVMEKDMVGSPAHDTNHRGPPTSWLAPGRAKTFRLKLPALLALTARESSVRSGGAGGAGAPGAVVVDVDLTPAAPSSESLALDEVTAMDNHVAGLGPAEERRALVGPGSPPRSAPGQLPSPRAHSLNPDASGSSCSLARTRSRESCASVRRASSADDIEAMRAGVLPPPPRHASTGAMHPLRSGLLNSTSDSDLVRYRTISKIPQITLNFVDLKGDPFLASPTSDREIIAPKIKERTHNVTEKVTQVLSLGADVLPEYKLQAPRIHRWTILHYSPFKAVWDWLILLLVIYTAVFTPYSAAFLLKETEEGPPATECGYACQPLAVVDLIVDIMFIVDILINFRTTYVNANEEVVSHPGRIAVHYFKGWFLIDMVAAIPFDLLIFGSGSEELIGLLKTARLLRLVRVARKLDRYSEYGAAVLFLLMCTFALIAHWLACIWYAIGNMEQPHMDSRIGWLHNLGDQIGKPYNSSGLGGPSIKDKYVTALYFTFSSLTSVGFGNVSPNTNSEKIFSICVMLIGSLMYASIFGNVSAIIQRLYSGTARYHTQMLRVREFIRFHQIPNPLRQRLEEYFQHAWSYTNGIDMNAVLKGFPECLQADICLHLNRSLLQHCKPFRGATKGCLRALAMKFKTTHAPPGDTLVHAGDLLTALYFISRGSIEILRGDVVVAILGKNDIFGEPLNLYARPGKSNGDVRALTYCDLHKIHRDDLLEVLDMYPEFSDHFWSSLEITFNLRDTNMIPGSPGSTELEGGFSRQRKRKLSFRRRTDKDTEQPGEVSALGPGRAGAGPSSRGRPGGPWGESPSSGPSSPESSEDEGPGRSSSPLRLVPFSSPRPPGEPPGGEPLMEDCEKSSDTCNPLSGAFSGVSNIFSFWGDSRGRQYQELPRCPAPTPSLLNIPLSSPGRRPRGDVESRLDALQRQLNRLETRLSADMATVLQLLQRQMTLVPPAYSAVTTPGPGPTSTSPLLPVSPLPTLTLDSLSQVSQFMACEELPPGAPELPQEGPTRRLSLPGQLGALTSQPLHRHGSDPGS
Experiment: hERG test (whole-cell patch-clamp, IKr in HEK293 cells)
Assay type: cell-based
Settings: human, HEK293 cells expressing hERG channel, pH 7.4, inhibition of maximum tail current (IKr), compound 1 μM
Write the number in % without appending the unit.

Some compounds with recorded inhibition at 10 min, 1 µM:
COc1cc(N2CCc3nc(NC(=O)Nc4ccccc4C(=O)NC4CCCC4O)sc3C2)nc(OC)n1 (stereo not drawn)
1.7
CC(C)NC(=O)c1ccccc1NC(=O)Nc1nc2c(s1)CN(c1cccc(S(C)(=O)=O)c1)CC2
5.9
CCNC(=O)c1ccncc1NC(=O)Nc1nc2c(s1)CN(c1cc(Cl)nc(OC)n1)CC2
2.4
COc1nc(Cl)cc(N2CCc3nc(NC(=O)Nc4ccccc4C(=O)NC4CCOC4)sc3C2)n1 (stereo not drawn)
1.6
COc1cc(N2CCc3nc(NC(=O)Nc4ccccc4C(=O)NC4CCOC4)sc3C2)nc(OC)n1 (stereo not drawn)
1.8
CC(C)NC(=O)c1ccccc1NC(=O)Nc1cn2nc(-c3cccc(S(C)(=O)=O)c3)ccc2n1
1.3
COc1nc(Cl)cc(N2CCc3nc(NC(=O)Nc4ccccc4C(=O)NC4CCCOC4)sc3C2)n1 (stereo not drawn)
4.8
CCNC(=O)c1ccccc1NC(=O)Nc1nc2c(s1)CN(c1cc(Cl)nc(OC)n1)CC2
6.8
COc1cc(N2CCc3nc(NC(=O)Nc4ccccc4OCCC(C)C)sc3C2)nc(OC)n1
7.7
COc1cc(N2CCc3nc(NC(=O)Nc4ccccc4C(=O)NN(C)C)sc3C2)nc(OC)n1
4.9

Consider the compound shown here: "COc1nc(N(C)C)cc(N2CCc3nc(NC(=O)Nc4ccccc4C(=O)NC(C)C)sc3C2)n1" What is its recorded inhibition at 10 min, 1 µM?
5.6

Also "CC(C)NC(=O)c1nn(C)cc1NC(=O)Nc1nc2c(s1)CN(c1cncc(C#N)c1)CC2" ?
0.2

Also "CCNC(=O)c1ccncc1NC(=O)Nc1nc2c(s1)CN(c1cc(OC)nc(OC)n1)CC2" ?
6.8

Also "CC(C)NC(=O)c1ccccc1NC(=O)Nc1nc2c(s1)CN(c1cncc(C(F)(F)F)c1)CC2" ?
3.9

Also COc1cc(C2(F)CCc3nc(NC(=O)Nc4ccccc4C(=O)NC(C)C)sc3C2)nc(OC)n1 (stereo not drawn) ?
3.3

* * *

Target: PI3Kγ (Homo sapiens)
Sequence (P48736 whole entry, species assumed): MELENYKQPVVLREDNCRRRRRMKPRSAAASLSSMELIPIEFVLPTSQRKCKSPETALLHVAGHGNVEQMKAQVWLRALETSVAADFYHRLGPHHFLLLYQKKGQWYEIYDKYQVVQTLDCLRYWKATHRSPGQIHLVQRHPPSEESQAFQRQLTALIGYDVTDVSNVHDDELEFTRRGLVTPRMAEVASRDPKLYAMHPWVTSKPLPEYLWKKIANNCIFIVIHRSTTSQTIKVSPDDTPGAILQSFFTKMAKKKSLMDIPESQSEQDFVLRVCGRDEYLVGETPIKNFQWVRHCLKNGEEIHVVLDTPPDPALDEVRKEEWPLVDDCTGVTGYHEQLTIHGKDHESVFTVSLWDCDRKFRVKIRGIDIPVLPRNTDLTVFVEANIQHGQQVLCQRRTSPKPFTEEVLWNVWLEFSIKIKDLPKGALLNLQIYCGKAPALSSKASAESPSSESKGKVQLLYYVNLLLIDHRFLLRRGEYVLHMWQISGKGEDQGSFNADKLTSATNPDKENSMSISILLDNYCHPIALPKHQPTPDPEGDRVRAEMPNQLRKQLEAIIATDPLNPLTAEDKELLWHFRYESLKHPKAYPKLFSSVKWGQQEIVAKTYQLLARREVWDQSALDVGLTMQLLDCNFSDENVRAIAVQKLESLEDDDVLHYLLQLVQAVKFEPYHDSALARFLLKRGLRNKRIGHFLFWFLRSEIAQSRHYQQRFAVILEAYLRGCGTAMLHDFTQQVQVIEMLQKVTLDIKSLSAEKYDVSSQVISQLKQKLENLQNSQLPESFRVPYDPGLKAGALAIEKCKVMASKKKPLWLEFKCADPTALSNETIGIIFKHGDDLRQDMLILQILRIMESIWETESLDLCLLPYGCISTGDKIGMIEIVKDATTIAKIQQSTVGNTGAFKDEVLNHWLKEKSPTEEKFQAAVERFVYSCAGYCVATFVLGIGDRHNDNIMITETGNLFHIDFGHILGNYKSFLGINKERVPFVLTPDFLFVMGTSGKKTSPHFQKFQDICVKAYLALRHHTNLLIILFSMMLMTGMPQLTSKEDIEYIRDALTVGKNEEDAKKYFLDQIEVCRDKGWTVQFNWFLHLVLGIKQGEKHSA
Test: PI3Kγ inhibitory activity (PI3-kinase HTRF assay, inhibition ratio)
Assay type: biochemical
Details: 0.5 h, compound at 10 μmol/L; read-out: PI3Kg Inhibition Ratio % (10 μM)
Measure Name: inhibition at 10 µM (%)

COc1cc(N2CCc3nc(NC(=O)Nc4ccccc4S(=O)(=O)NC(C)C)sc3C2)nc(OC)n1 [Compound I-171]
85
O=C(Nc1nc2c(s1)CN(c1cncc(C(F)(F)F)c1)CC2)Nc1ccccc1C(=O)NC(CO)CO [Compound I-173]
71
COC(=O)c1ccsc1NC(=O)Nc1nc2c(s1)CN(c1cc(OC)nc(OC)n1)CC2 [Compound I-1]
79

* * *

Target: UniProt:P48736
Assay: PI3Kγ inhibitory activity (PI3-kinase HTRF assay, inhibition ratio)
Format: biochemical
Settings: 0.5 h, compound at 10 μmol/L; read-out: PI3Kg Inhibition Ratio % (10 μM)
Measure Name: inhibition at 10 µM (%)

COc1cc(N2CCc3nc(NC(=O)Nc4cn(C)nc4C(=O)N[C@@H](C)CO)sc3C2)nc(OC)n1 [Compound I-155]
90
Cc1cc(N2CCc3nc(NC(=O)Nc4ccccc4C(=O)N[C@@H](C)CO)sc3C2)nc(C#N)n1 [Compound I-180]
89
C[C@H](CO)NC(=O)c1ccccc1NC(=O)Nc1nc2c(s1)CN(c1ccc(C(F)(F)F)cc1)CC2 [Compound I-207]
93
COc1cncc(-c2cc(NC(=O)Nc3ccccc3C(=O)NC(C)C)nn2C)c1 [Compound I-226]
93

* * *

Tested on: CYP1A2, CYP2C9, CYP2C19, CYP2D6 and CYP3A4 (one value for the five species)
Test: CYP inhibition test, five CYP species together (5CYPs_IC50; pooled human liver microsome)
Type: in vitro ADME
Settings: human, microsomes
Measure Name: IC50 at 15 min

COc1cc(N2CCc3nc(NC(=O)Nc4ccccc4C(=O)NC(C)(C)C(=O)O)sc3C2)nc(OC)n1
> 20 µM
COc1cncc(-c2cc(NC(=O)Nc3ccccc3C(=O)NC(C)C)nn2C)c1
≥ 10 µM
COCCNC(=O)c1ccccc1NC(=O)Nc1nc2c(s1)CN(c1cc(OC)nc(OC)n1)CC2
≥ 10 µM

// below: IC50 at 15 min requested for another molecule
Consider the molecule shown here: "COc1cc(N2CCc3nc(NC(=O)Nc4ccccc4C(=O)NCCC#N)sc3C2)nc(OC)n1" What is its recorded IC50 at 15 min?
≥ 10 µM

* * *

// reported inhibition at 1 µM per item
Test system: AKT phosphorylation
Assay: AKT phosphorylation inhibitory activity in MCP-1 stimulated THP-1 cells (sandwich ELISA)
Format: cell-based, Human
Details: Homo sapiens, compound at 1 μmol/L, MCP-1 stimulation, read-out: AKT phosphorylation inhibition ratio
Write the number in % without appending the unit.

# get_value(readout= inhibition at 1 µM, system= AKT phosphorylation) for "COc1cc(N2CCc3nc(NC(=O)Nc4ccccc4C(=O)NCCF)sc3C2)nc(OC)n1"
87.3

Also "CC(C)NC(=O)c1ccccc1NC(=O)Nc1nc2c(s1)CN(c1cncc(C(F)(F)F)c1)CC2" ?
84

* * *

System: AKT phosphorylation
Experiment: AKT phosphorylation inhibitory activity in MCP-1 stimulated THP-1 cells (sandwich ELISA)
Format: cell-based, Human
Settings: Homo sapiens, compound at 1 μmol/L, MCP-1 stimulation, read-out: AKT phosphorylation inhibition ratio
Method: (1) The AKT phosphorylation inhibitory activity of a compound was evaluated according to the following procedure. […] (5) The amount of AKT phosphorylation in the cell solution was measured by sandwich ELISA method using anti-Phospho-Akt (Ser473) antibody and anti-AKT1 antibody. […] (9) 100 μL of stop solution was added to quench the color reaction, and then the absorbance at 450 nm was measured. […]
// reported inhibition at 1 µM per item
Write the number in % without appending the unit.

Consider the molecule shown here: CS(=O)(=O)c1cncc(N2CCc3nc(NC(=O)Nc4ccccc4C(=O)NCC#N)sc3C2)c1 [Compound I-210] What is its recorded inhibition at 1 µM?
93

Also C[C@@H](CO)NC(=O)c1ccccc1NC(=O)Nc1nc2c(s1)CN(c1cncc(S(C)(=O)=O)c1)CC2 [Compound I-211] ?
85

Also Cc1cc(N2CCc3nc(NC(=O)Nc4ccccc4C(=O)N[C@H](C)CO)sc3C2)nc(Cl)n1 [Compound I-169] ?
75
